# testedOn: UniProt:P28221
# Sequence (P28221 whole entry): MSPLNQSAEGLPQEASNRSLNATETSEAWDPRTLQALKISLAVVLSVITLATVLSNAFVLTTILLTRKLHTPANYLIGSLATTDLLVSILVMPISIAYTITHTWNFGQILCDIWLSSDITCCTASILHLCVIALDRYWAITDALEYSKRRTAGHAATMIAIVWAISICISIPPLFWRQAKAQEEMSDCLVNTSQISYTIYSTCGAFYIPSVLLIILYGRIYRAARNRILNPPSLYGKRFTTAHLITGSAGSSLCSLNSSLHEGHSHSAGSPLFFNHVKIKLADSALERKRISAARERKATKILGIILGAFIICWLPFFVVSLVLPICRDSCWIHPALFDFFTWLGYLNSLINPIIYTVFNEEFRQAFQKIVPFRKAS
# assayDetails: Secondary radioligand binding assay, 5HT1d;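 also: competition binding against a radioligand on membranes from transfected cell lines, 1.5 h at room temperature, filter-retained radioactivity counted by liquid scintillation, total binding plotted versus log competitor concentration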
# Design: key: “—” indicates that a binding interaction was not detected
# conditionDescription: average of at least two experiments
testReadout: Ki 5HT1d

O=C(CN1CCO[C@@H](COc2cccnc2)C1)N1CCc2ccccc21 [Compound 20r] ... —
Cc1ncccc1OC[C@@H]1CN(CC(=O)N2c3ccccc3C[C@H]2C)CCO1 ... —
CC1Cc2ccccc2N1C(=O)CN1CCO[C@H](COc2cccc(Cl)c2)C1 (some centres unmarked) ... —
Clc1cccc(OC[C@H]2CN(CCN3CCc4ccccc43)CCO2)c1 [Compound 23r] ... —
Cc1ncccc1OC[C@H]1CN(CCN2CCc3ccccc32)CCO1 [Compound 26r] ... —
